B1: 2M8U (parent)
chain: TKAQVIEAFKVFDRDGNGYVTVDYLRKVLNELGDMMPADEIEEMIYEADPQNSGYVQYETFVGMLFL

# Variants of: B1
# experiment.description: folding stability dG (cDNA display proteolysis); higher = more stable
# test.parameters: PBS, room temperature
Classify by measured folding stability dG: Fulfilled if it is equal to or exceeds 3 kcal/mol, Not fulfilled if it is smaller.

| mutant | label.class |
| --- | --- |
| P37F | Fulfilled |
| E42I | Fulfilled |
| F66L | Not fulfilled |
| E31L | Fulfilled |
| Q51P | Not fulfilled |
| R26K | Fulfilled |
| D15P | Not fulfilled |
| E43F | Fulfilled |
| Q51W | Fulfilled |
| E43G | Fulfilled |
| E47S | Fulfilled |
| A48H | Fulfilled |
| A48W | Fulfilled |
| V62F | Not fulfilled |
